ASSAY_EXPLANATION: Water-solubility and wettability of Phthalazinol
Assay type: physicochemical
MEASUREMENT_SETUP: water at 25° C.

# SMILES_ENTRY, solubility
records = [
    ("CCOC(=O)c1c(C)cc2c(CO)n[nH]c(=O)c2c1C", "~200 µg/mL"),
]

====

ASSAY_EXPLANATION: Oral absorption and blood content of Phthalazinol (first pass effect)
Type: in vivo
MEASUREMENT_SETUP: in vivo, po; administered orally

# COMPOUND, Fa
rows = [
    ("CCOC(=O)c1c(C)cc2c(CO)n[nH]c(=O)c2c1C [Phthalazinol]", "~100%"),
]

Data credit: patent US4406879A
